Listed next: entries and their corresponding IFNγ, Luminex (supernatant).
study target: T1, T cell receptor (TCR) Vγ9 (TRGV9) (human, UniProt Q99603 21-122)
T1 chain (looked up): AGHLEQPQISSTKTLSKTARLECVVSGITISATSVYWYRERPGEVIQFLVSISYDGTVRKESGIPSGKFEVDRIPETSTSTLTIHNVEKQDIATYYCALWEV
assay info: cell-based or functional assay
Note: the reply should be a number with no unit written.

Given the binder VG9B33 (antibody, human IgG1, kappa, V domains shown) VH: EVQLVESGGGLVKPGGSLRLSCAASGFTFSSYNMNWVRQAPGKGLEWVSSISTSSSYIYYADSVKGRFTISRDNAKNSLYLQMNGLRAEDTAVYYCARDTSVTKYPDTFDIWGQGTMVTVSS VL: DIVMTQSPSSLSASVGDRVTITCRASQDINNYLAWFQQKPGKVPNLLIYGASTLQSGVPSRFTGSGSGTDFTLTISSLQPEDVATYYCQKYNSAPFTFGPGTKVDIKR , what is its reported IFNγ, Luminex (supernatant)?
749

Continuing:
Given the binder VG9B127 (antibody, human IgG1, kappa, V domains shown) VH: QVQLVESGGGLVKPGGSLRLSCTASGFTFGAYTMNWVRQAPGKGLEWVSSISSSSSYIDFAESVKGRFTISRDNAKNSLYLQMISLRAEDTAVYYCARDGDIVSTIRGSFDYWGQGALVTVSS VL: EIVMTQSPLSLPVTPGEPASISCRSSQSLLDSDDGNTYLDWYLQKPGQSPQLLIYTLSYRASGVPDRFSGSGSGTDFTLKISRVEAEDVGIYYCMQRIEFPITFGQGTKVEIKR , what is its reported IFNγ, Luminex (supernatant)?
1170

Where do the numbers come from? From patent US20220125947A1.
